# System: SR
# experimental-protocol: NCI tumour cell line growth inhibition, 48 h
Calls of active or inactive are those of the source. Rule as the data show it: active = GI50 up to about 1.1 µM and inactive = higher.
Answer with one of the outcomes given here: active, inactive

# molecule, target-under-test, assigned-category
rows = [
    ("Cc1cc(NS(=O)(=O)c2ccc(Nc3c4ccccc4nc4ccc(C(=O)Nc5ccc(S(=O)(=O)N=C(N)N)cc5)cc34)cc2)no1", "SR", "inactive"),
    ("COc1cc2c(cc1OC)C1=CCC(c3ccccc3)[N+]1(C)CC2 (stereo not drawn)", "SR", "inactive"),
    ("Cc1ccccc1NC(=O)/C(=N\\NC(N)=S)C(C#N)c1ccccc1 (stereo not drawn)", "SR", "inactive"),
    ("CCc1nnc(-c2nsc3ccccc23)s1", "SR", "inactive"),
    ("COC(=O)C(Nc1ccc(OC)cc1)c1ccccc1 (stereo not drawn)", "SR", "inactive"),
]

Tell me the recorded outcome of this test for Oc1ccc(-c2cc(-c3cc(-c4ccc(O)cc4)no3)on2)cc1 .
inactive

State the result this test recorded for CCCCCCCCCCC1OC([C@@H](O)CC[C@H](O)C2CC[C@@H](CCCCCCCC(O)CC3=CC(C)OC3=O)O2)CCC1O (stereo partly drawn) .
active

For CC1=NN(c2cccc(Cl)c2)C(=N/c2nc3ccccc3s2)/C1=C\C=C\c1ccccc1 , which call appears in the assay record?
active

How was CCCCC(O)(c1ccccc1)C(O)(c1ccccc1)c1c(F)c(F)c(F)c(F)c1F (stereo not drawn) classified in this test?
inactive

For CC1(C)C=[N+]([O-])C(C)(C)N1O , which call appears in the assay record?
inactive

What outcome does the record of this test show for O=P(O)(O)c1ccc(-c2ccc(I)cc2)cc1 ?
inactive

Returns: the outcome recorded for CCOC(=O)C1(C#N)C(c2ccccc2)CC(O)(c2ccc([N+](=O)[O-])cc2)C(C(=O)c2ccc([N+](=O)[O-])cc2)C1c1ccccc1 (stereo not drawn) in this assay.
inactive

Identify the outcome logged in this assay for the molecule shown: CS/C(=N\c1ccccc1Cl)NC(=O)c1ccc(Br)cc1
inactive

###

# System: RPMI-8226
# experimental-protocol: NCI tumour cell line growth inhibition, 48 h
Calls of active or inactive are those of the source. Cut-off read from the data, not from the text of the source: active = GI50 up to about 1.1 µM and inactive = higher.
measurement-label: GI50

Known GI50 results, listed for orientation:
# molecule, GI50
data = [
    ("CCCOCN1COCN/C1=N\\C#N", "69.7 µM (inactive)"),
    ("Cc1cccc(/C=N/NC(=S)Nc2ccccc2)n1", "3.48 µM (inactive)"),
    ("CCCCC(O)(c1ccccc1)C(O)(c1ccccc1)c1c(F)c(F)c(F)c(F)c1F (stereo unspecified)", "18.2 µM (inactive)"),
    ("COc1ccc2c(c1OC)OCC(CN(C)C)C2=O (stereo unspecified)", "2.42 µM (inactive)"),
    ("C=CCOC1OC(CS(=O)(=O)O)C(OC(C)=O)C(OC(C)=O)C1OC(C)=O (stereo unspecified)", "> 100 µM (inactive)"),
]

Now examine the next entry.
Return GI50 for the following molecule: N#CC1(C#N)NC(c2cccs2)C(C#N)(C#N)NC1c1cccs1 (stereo unspecified)
27.4 µM (inactive)

###

# System: Hs-578T
# experimental-protocol: NCI tumour cell line growth inhibition, 48 h
Activity calls are given as the source filed them. Cut-off read from the data, not from the text of the source: active = GI50 up to about 1.1 µM and inactive = higher.
Attribute: GI50

# compound, observed-value
rows = [
    ("O=CC1OC(=O)c2cc(O)c(O)c(O)c2-c2c(cc(O)c(O)c2O)C(=O)OC1C(O)C(O)CO (stereo unspecified)", "54 µM (inactive)"),
    ("CO/N=C(/C)c1cccc(Nc2nc3ccc(Cl)cc3c3[nH]c4ccccc4c23)c1", "16.7 µM (inactive)"),
    ("COc1ccc(CCCNC(=O)c2cc(OC)c(OC)cc2CCO)cc1OC", "> 100 µM (inactive)"),
    ("C[C@]1(O)CC[C@H]2[C@@H]3CCc4cc(O)ccc4[C@H]3CC[C@@]21C", "1.19 µM (inactive)"),
]

Return GI50 (reported value) for this compound: c1ccc2c(c1)nc1ccccn12
33.6 µM (inactive)

Give me measured GI50, please, for this compound: O=c1[nH]c(=O)n(C2OC(CO)C(O)C2O)c2c1CCCC2 (stereo unspecified)
> 100 µM (inactive)

Report measured GI50; entry is COc1ccc2c(c1OC)OCC(CN(C)C)C2=O (stereo unspecified)
39.1 µM (inactive)

Provide measured GI50 value, entry: C=CCNC(=O)CN(CC(=O)O)C1CCCCC1N(CC(=O)O)CC(=O)O (stereo unspecified)
> 100 µM (inactive)

Quick one: give measured GI50 for CCOP(=O)(OCC)[C@H]1OC(C)(C)O[C@@H]1CO
> 100 µM (inactive)

Hello, please tell me recorded GI50 for this one: O=c1oc2cc(O)ccc2cc1-c1nc2ccccc2o1
33.4 µM (inactive)

Hello, please tell me recorded GI50 for this one: COc1ccc(C2=Cc3nc2c(-c2ccccc2)c2ccc([nH]2)c(-c2ccccc2)c2nc(c(-c4ccccc4)c4ccc([nH]4)c3-c3ccccc3)C=C2)cc1
> 100 µM (inactive)

###

# Tested on: SNB-78
# experimental-protocol: NCI tumour cell line growth inhibition, 48 h
Calls of active or inactive are those of the source. Rule as the data show it: active = GI50 up to about 1.1 µM and inactive = higher.
measurement-label: GI50

Would you please look over these solved cases?
# molecule, observed-value
rows = [
    ("CC(C)[C@H](COC(C)(C)C)/N=C/N1CSc2ccccc21", "30 µM (inactive)"),
    ("C/C(CC(=O)Nc1ccc(Cl)cc1)=N\\NC(=O)C[n+]1ccccc1", "> 100 µM (inactive)"),
    ("OCC(O)C(OC1OC(CO)C(O)C(O)C1O)c1nn(-c2ccc(F)cc2)c2nc3cc(Cl)c(Cl)cc3cc12 (stereo not given)", "> 100 µM (inactive)"),
    ("CC(=O)OC1CC2OC(Cc3ccccc32)O1 (stereo not given)", "> 100 µM (inactive)"),
    ("CCOC(=O)C1(C#N)C(c2ccccc2)CC(O)(c2ccc([N+](=O)[O-])cc2)C(C(=O)c2ccc([N+](=O)[O-])cc2)C1c1ccccc1 (stereo not given)", "> 100 µM (inactive)"),
    ("COc1cc2c(cc1OC)[C@@H]([C@H](O)c1ccccc1)NCC2", "> 100 µM (inactive)"),
    ("O=C(Nc1ccccc1)n1cc(-c2ccccn2)c(N2CCOCC2)n1", "24.9 µM (inactive)"),
    ("O=S(=O)(CF)OCCCCOS(=O)(=O)CF", "> 100 µM (inactive)"),
    ("CC[C@H]1[C@@H](C)C=C[C@@H](C)N1S(=O)(=O)c1ccc(C)cc1", "> 100 µM (inactive)"),
]

Next, consider the following molecule.
Write down GI50 measured for item CC1=CC(=O)NP(=O)(Oc2ccc(C)cc2)N1 (stereo not given)
> 100 µM (inactive)

###

# System: TK-10
# experimental-protocol: NCI tumour cell line growth inhibition, 48 h
Activity calls are given as the source filed them. Cut-off read from the data, not from the text of the source: active = GI50 up to about 1.1 µM and inactive = higher.
# GI50 annotations

# molecule, GI50
records = [
    ("O=C(COc1ccc(Cl)cc1)N1CCN(C(=O)COc2ccc(Cl)cc2)c2ccccc21", "33.4 µM (inactive)"),
    ("O=C(NNC(=O)c1ccccc1O)c1ccccc1O", "5.97 µM (inactive)"),
    ("CC1=CC(C)C(C)N(CCNS(=O)(=O)c2ccc(C)cc2)c2ccccc21 (stereo not given)", "30.5 µM (inactive)"),
    ("CCCCCCCCCCC1OC([C@@H](O)CC[C@H](O)C2CC[C@@H](CCCCCCCC(O)CC3=CC(C)OC3=O)O2)CCC1O (stereo not given in full)", "11.7 µM (inactive)"),
    ("N#CC1=C(N)OC2=C(CSc3ccccc32)C1c1ccc(Br)cc1 (stereo not given)", "13.6 µM (inactive)"),
]

Answer briefly: GI50 recorded on TK-10 for CC1=CSC(O)(c2ccc(Cl)cc2)c2noc(=O)n21 (stereo not given)
> 100 µM (inactive)

Print TK-10 GI50 for COc1cc(/C=c2\sc3n(c2=O)C(c2ccc(Cl)cc2)C2=C(CCCC2C)N=3)cc(OC)c1OC (stereo not given) .
> 100 µM (inactive)

###

# Test system: NCI/ADR-RES
# experimental-protocol: NCI tumour cell line growth inhibition, 48 h
Calls of active or inactive are those of the source. No stated cut-off is given here; in the data, active = GI50 up to about 1.1 µM and inactive = higher.
measurement-label: GI50

# example entries with known answers
# compound, observed-value
data = [
    ("CC(=O)c1sc2c(c1OC(=O)c1ccc(Cl)cc1)c(=O)n(-c1ccccc1)c(=S)n2-c1ccccc1", "4.73 µM (inactive)"),
    ("O=P(O)(O)c1ccc(-c2ccc(I)cc2)cc1", "> 100 µM (inactive)"),
    ("O=C1NC2CCCCC2N=C1CC(=O)c1ccc(Br)cc1 (stereo not given)", "4.07 µM (inactive)"),
    ("Cc1cc(C)c2c(n1)S(=O)(=O)N(CCCN1CCN(c3cccc(Cl)c3)CC1)C(C(=O)c1ccccc1)=C2O", "20.6 µM (inactive)"),
    ("COc1cccc(CC(=O)N2CCN(CCCc3ccccc3)CC2)c1", "27.9 µM (inactive)"),
    ("O=C1NC(=O)C(CC(C(=O)C(=O)Nc2ccccc2Cl)C(=O)c2ccc3ccccc3c2)C(=O)N1 (stereo not given)", "> 100 µM (inactive)"),
]

Provide GI50 value for the following compound: COc1ccc2c(c1OC)OC[C@@H](C1=CC(=O)C=C(O)C1=O)C2
24.5 µM (inactive)

Answer with the recorded GI50 for the compound listed here: CN(NC(=O)c1ccco1)C1=NCCCCN1
> 100 µM (inactive)

Specify measured GI50 for COC(=O)c1c(OC(C)=O)ccc2c1c1c(n2C)C(=O)c2ccccc2C1=O .
33.9 µM (inactive)

Give reported GI50 value for CCN(CC)c1ccc2cc(-c3nnc(-c4ccccc4)[nH]3)c(=O)oc2c1
21.7 µM (inactive)

All values here come from ChEMBL document CHEMBL1201862.
